Data provenance is ChEMBL document CHEMBL1132813.

- Tested on: P388
- test_details: The compound was evaluated for its cytotoxic potency against P388 cell line
- Type: functional, cell-based
- run_parameters: Mus musculus
log10(IC50): recorded values
Lab note - IC50 converted to log10 from values in nM.

These solved cases illustrate the format of a correct answer.
molecule: COc1ccc2[nH]c(-c3ccc4ccccc4c3)c(-c3cc(OC)c(OC)c(OC)c3)c2c1
log10(IC50): 3.10
//
molecule: COc1ccc(/C=C\c2cc(OC)c(OC)c(OC)c2)cc1O [COMBRETASTATIN A4]
log10(IC50): 0.50
//
molecule: COc1cc(CCc2ccc3ccccc3c2)cc(OC)c1OC
log10(IC50): 2.50
//
molecule: COc1ccc(/C=C/c2ccc3ccccc3c2)cc1O
log10(IC50): 3.60

Which log10(IC50) is reported for this molecule? COc1ccc(CCc2ccc3ccccc3c2)cc1O
3.70

Which log10(IC50) is reported for this molecule? COc1cc(/C=C\c2ccc3ccccc3c2)cc(OC)c1OC [NAPHTHYLCOMBRETASTATIN]
1.20
